Test system: NCI-H1915
MEASUREMENT PROTOCOL: relative viability (nuclei count vs DMSO), 5 days (fraction); higher = more cells survive
MEASUREMENT SETUP: first compound 0.1 µM
ENDPOINT: relative viability
Just the number.

Query block: Notebook: pull reported relative viability for NCI-H1915, entry NC(=O)Nc1cc(-c2cccc(F)c2)sc1C(=O)N[C@H]1CCCNC1 [AZD7762] + CC(C)C[C@H](NC(=O)[C@H](Cc1ccccc1)NC(=O)c1cnccn1)B(O)O [Bortezomib] (partner 0.002 µM)
Result block: 1.03

Query block: What do you have for NC(=O)Nc1cc(-c2cccc(F)c2)sc1C(=O)N[C@H]1CCCNC1 [AZD7762] + Nc1ncn([C@H]2C[C@H](O)[C@@H](CO)O2)c(=O)n1 [Decitabine] (partner 2 µM) ?
Result block: 0.294

Query block: What do you get for NC(=O)Nc1cc(-c2cccc(F)c2)sc1C(=O)N[C@H]1CCCNC1 [AZD7762] + Nc1nc2[nH]cc(CCc3ccc(C(=O)N[C@@H](CCC(=O)O)C(=O)O)cc3)c2c(=O)[nH]1 [Pemetrexed] (partner 0.2 µM) ?
Result block: 0.346

Query block: Input NC(=O)Nc1cc(-c2cccc(F)c2)sc1C(=O)N[C@H]1CCCNC1 [AZD7762] + CS(=O)(=O)CCNCc1ccc(-c2ccc3ncnc(Nc4ccc(OCc5cccc(F)c5)c(Cl)c4)c3c2)o1 [Lapatinib] (partner 2 µM)
Result block: 0.943

Query block: Another molecule to check: NC(=O)Nc1cc(-c2cccc(F)c2)sc1C(=O)N[C@H]1CCCNC1 [AZD7762] + CC(=O)Nc1cccc(-n2c(=O)n(C3CC3)c(=O)c3c(Nc4ccc(I)cc4F)n(C)c(=O)c(C)c32)c1 [Trametinib] (partner 0.02 µM)
Result block: 0.305

Query block: Item: NC(=O)Nc1cc(-c2cccc(F)c2)sc1C(=O)N[C@H]1CCCNC1 [AZD7762] + Cc1cc(Nc2cc(N3CCN(C)CC3)nc(Sc3ccc(NC(=O)C4CC4)cc3)n2)n[nH]1 [Tozasertib] (partner 0.1 µM)
Result block: 0.483

Query block: Same question for NC(=O)Nc1cc(-c2cccc(F)c2)sc1C(=O)N[C@H]1CCCNC1 [AZD7762] + CS(=O)(=O)N1CCN(Cc2cc3nc(-c4cccc5[nH]ncc45)nc(N4CCOCC4)c3s2)CC1 [Pictilisib] (partner 1 µM) please.
Result block: 1.02

====

System: CAL-12T
MEASUREMENT PROTOCOL: relative viability (nuclei count vs DMSO), 5 days (fraction); higher = more cells survive
MEASUREMENT SETUP: first compound 0.8 µM
I'd appreciate it if you could supply relative viability values for the items below.
Please state the value as a number alone, without comment.

Query block: Quick one: relative viability for Oc1nc(-c2ccc(C(F)(F)F)cc2)nc2c1CSCC2 [XAV939] + O=C(c1cc(Cc2n[nH]c(=O)c3ccccc23)ccc1F)N1CCN(C(=O)C2CC2)CC1 [Olaparib] (partner 8 µM) ?
Result block: 0.689

Query block: Now the compound C=C1C(=O)O[C@@H](CCCCCCCC)[C@@H]1C(=O)O [C-75] + CS(=O)(=O)CCNCc1ccc(-c2ccc3ncnc(Nc4ccc(OCc5cccc(F)c5)c(Cl)c4)c3c2)o1 [Lapatinib] (partner 2 µM)
Result block: 0.492

Query block: Ok, now Oc1nc(-c2ccc(C(F)(F)F)cc2)nc2c1CSCC2 [XAV939] + CC(=O)Nc1cccc(-n2c(=O)n(C3CC3)c(=O)c3c(Nc4ccc(I)cc4F)n(C)c(=O)c(C)c32)c1 [Trametinib] (partner 0.02 µM)
Result block: 0.272

Query block: Next compound: C=C1C(=O)O[C@@H](CCCCCCCC)[C@@H]1C(=O)O [C-75] + O=C(c1cc(Cc2n[nH]c(=O)c3ccccc23)ccc1F)N1CCN(C(=O)C2CC2)CC1 [Olaparib] (partner 8 µM)
Result block: 0.788

Query block: Could you do the same for Oc1nc(-c2ccc(C(F)(F)F)cc2)nc2c1CSCC2 [XAV939] + N=C(N)NC(=N)NCCc1ccccc1 [Phenformin] (partner 250 µM) , please?
Result block: 0.46

Query block: Consider next the compound Oc1nc(-c2ccc(C(F)(F)F)cc2)nc2c1CSCC2 [XAV939] + O=C(CCCCCCC(=O)Nc1ccccc1)NO [Vorinostat] (partner 1 µM) in the same way.
Result block: 0.823

Query block: What do we get for Oc1nc(-c2ccc(C(F)(F)F)cc2)nc2c1CSCC2 [XAV939] + CS(=O)(=O)N1CCN(Cc2cc3nc(-c4cccc5[nH]ncc45)nc(N4CCOCC4)c3s2)CC1 [Pictilisib] (partner 1 µM) ?
Result block: 0.373

Query block: Record: Oc1nc(-c2ccc(C(F)(F)F)cc2)nc2c1CSCC2 [XAV939] + COc1cc2c(Oc3ccc(NC(=O)C4(C(=O)Nc5ccc(F)cc5)CC4)cc3F)ccnc2cc1OCCCN1CCOCC1 [Foretinib] (partner 0.25 µM)
Result block: 1.15

Query block: Next up: Oc1nc(-c2ccc(C(F)(F)F)cc2)nc2c1CSCC2 [XAV939] + CCNC(=O)c1noc(-c2cc(C(C)C)c(O)cc2O)c1-c1ccc(CN2CCOCC2)cc1 [Luminespib] (partner 0.01 µM)
Result block: 0.363

====

Tested on: NCI-H2023
MEASUREMENT PROTOCOL: relative viability (nuclei count vs DMSO), 5 days (fraction); higher = more cells survive
MEASUREMENT SETUP: first compound 0.08 µM
ENDPOINT: relative viability
I'd appreciate a reply containing only the number, no unit.

Query block: Observed relative viability on NCI-H2023 for Oc1nc(-c2ccc(C(F)(F)F)cc2)nc2c1CSCC2 [XAV939] + Nc1ncn([C@H]2C[C@H](O)[C@@H](CO)O2)c(=O)n1 [Decitabine] (partner 2 µM) , please.
Result block: 0.207

Query block: Field entry: C=C1C(=O)O[C@@H](CCCCCCCC)[C@@H]1C(=O)O [C-75] + Cc1nc(NC(=O)N2CCC[C@H]2C(N)=O)sc1-c1ccnc(C(C)(C)C(F)(F)F)c1 [Alpelisib] (partner 2 µM)
Result block: 0.637

Query block: Also Oc1nc(-c2ccc(C(F)(F)F)cc2)nc2c1CSCC2 [XAV939] + CC1(C)CCC(c2ccc(Cl)cc2)=C(CN2CCN(c3ccc(C(=O)NS(=O)(=O)c4ccc(N[C@H](CCN5CCOCC5)CSc5ccccc5)c(S(=O)(=O)C(F)(F)F)c4)cc3)CC2)C1 [Navitoclax] (partner 0.5 µM) ?
Result block: 0.968

====

System: ABC-1
MEASUREMENT PROTOCOL: relative viability (nuclei count vs DMSO), 5 days (fraction); higher = more cells survive
MEASUREMENT SETUP: first compound 0.8 µM
ENDPOINT: relative viability
Lab note: write the figure by itself, no unit.

Query block: # value lookup — system ABC-1, readout relative viability, item Oc1nc(-c2ccc(C(F)(F)F)cc2)nc2c1CSCC2 [XAV939] + C[C@@H](Oc1cc(-c2cnn(C3CCNCC3)c2)cnc1N)c1c(Cl)ccc(F)c1Cl [Crizotinib] (partner 1 µM)
Result block: 0.908

Query block: Now the same for Oc1nc(-c2ccc(C(F)(F)F)cc2)nc2c1CSCC2 [XAV939] + CC(C)C[C@H](NC(=O)[C@H](Cc1ccccc1)NC(=O)c1cnccn1)B(O)O [Bortezomib] (partner 0.002 µM)
Result block: 0.254

Query block: // next record C=C1C(=O)O[C@@H](CCCCCCCC)[C@@H]1C(=O)O [C-75] + Cc1cc(Nc2cc(N3CCN(C)CC3)nc(Sc3ccc(NC(=O)C4CC4)cc3)n2)n[nH]1 [Tozasertib] (partner 0.1 µM)
Result block: 0.198

====

Test system: NCI-H520
MEASUREMENT PROTOCOL: relative viability (nuclei count vs DMSO), 5 days (fraction); higher = more cells survive
MEASUREMENT SETUP: first compound 0.3162 µM
ENDPOINT: relative viability
Enter a number only.

Query block: What value of relative viability has been reported for the following compound? NC(=O)Nc1cc(-c2cccc(F)c2)sc1C(=O)N[C@H]1CCCNC1 [AZD7762] + CC(C)C[C@H](NC(=O)[C@H](Cc1ccccc1)NC(=O)c1cnccn1)B(O)O [Bortezomib] (partner 0.002 µM)
Result block: 0.27

Query block: Another compound to look at: NC(=O)Nc1cc(-c2cccc(F)c2)sc1C(=O)N[C@H]1CCCNC1 [AZD7762] + Cc1nc(NC(=O)N2CCC[C@H]2C(N)=O)sc1-c1ccnc(C(C)(C)C(F)(F)F)c1 [Alpelisib] (partner 2 µM)
Result block: 0.635

Query block: Follow-up entry: NC(=O)Nc1cc(-c2cccc(F)c2)sc1C(=O)N[C@H]1CCCNC1 [AZD7762] + Cc1cc(Nc2cc(N3CCN(C)CC3)nc(Sc3ccc(NC(=O)C4CC4)cc3)n2)n[nH]1 [Tozasertib] (partner 0.1 µM)
Result block: 0.39

Query block: Try this compound too: NC(=O)Nc1cc(-c2cccc(F)c2)sc1C(=O)N[C@H]1CCCNC1 [AZD7762] + CS(=O)(=O)CCNCc1ccc(-c2ccc3ncnc(Nc4ccc(OCc5cccc(F)c5)c(Cl)c4)c3c2)o1 [Lapatinib] (partner 2 µM)
Result block: 0.304

Query block: Please give the result for NC(=O)Nc1cc(-c2cccc(F)c2)sc1C(=O)N[C@H]1CCCNC1 [AZD7762] + C[C@]1(O)C[C@@H](c2nc(-c3ccc4ccc(-c5ccccc5)nc4c3)c3c(N)nccn32)C1 [Linsitinib] (partner 1 µM) too.
Result block: 0.551
